Data origin: PubChem BioAssay (EPA / NIEHS)

- Read-out: Interleukin-8 (IL8), CXCL8 (gene 3576)
- assay_comment: BSK_LPS_IL8: BioMAP Diversity Plus: LPS Assay for Interleukin-8 (IL8) Biomarker Activity (AID 2283078)
- condition_label: primary human HUVEC with PBMC; actives raise or lower the signal
Activity calls are given as the source filed them. The calls were made as follows: active = hit-call score of the fitted dose curve at least 0.9, where 1 is the maximum; inactive = score below 0.9.
Outcome codes: active, inactive

compound: O=C(Nc1ccccc1)Nc1ccnc(Cl)c1
category: active
//
compound: COC(=O)N(OC)c1ccccc1COc1ccn(-c2ccc(Cl)cc2)n1
category: active
//
compound: CON(C)C(=O)Nc1ccc(Cl)c(Cl)c1
category: inactive
//
compound: C=CC1(C)OC(=O)N(c2cc(Cl)cc(Cl)c2)C1=O (stereo unspecified)
category: inactive
//
compound: C=CCC1=C(C)[C@@H](OC(=O)[C@@H]2[C@@H](C=C(C)C)C2(C)C)CC1=O
category: active
//
compound: COc1nc(C)nc(NC(=O)NS(=O)(=O)c2ccccc2Cl)n1
category: inactive

* * *

- Read-out: flavin-containing dimethylaniline monooxygenases 3 (FMO3), FMO3 (gene 2328)
- assay_comment: LTEA_HepaRG_FMO3: Life Technologies and Expression Analysis (LTEA) Assay for flavin-containing dimethylaniline monooxygenases 3 (FMO3) using HepaRG (AID 2283453)
- condition_label: mRNA level, 48 h; actives raise or lower the signal
Active and inactive are the calls of the source. The calls were made as follows: active = hit-call score of the fitted dose curve at least 0.9, where 1 is the maximum; inactive = score below 0.9.
Outcome codes: Y = active, N = inactive

compound: CC(C)Oc1cc(-n2nc(C(C)(C)C)oc2=O)c(Cl)cc1Cl
category: Y
--
compound: CCOc1cc(Oc2ccc(C(F)(F)F)cc2Cl)ccc1[N+](=O)[O-]
category: Y
--
compound: CNC(=O)ON=CC(C)(C)SC
category: N
--
compound: CCOC(=O)CC(SP(=S)(OC)OC)C(=O)OCC (configuration not stated)
category: N
--
compound: OC(c1ccc(Cl)cc1)(c1cncnc1)c1ccccc1Cl (configuration not stated)
category: Y
--
compound: CCON=C(CC)C1=C(O)CC(c2c(C)cc(C)cc2C)CC1=O (configuration not stated)
category: N
--
compound: COP(N)(=O)SC (configuration not stated)
category: N
--
compound: Cc1ccc(-c2c(Cl)nc(C#N)n2S(=O)(=O)N(C)C)cc1
category: Y
--
compound: CN(C)C(=S)SSC(=S)N(C)C
category: N
--
compound: COC(=O)C(C)Oc1ccc(Oc2ccc(Cl)cc2Cl)cc1 (configuration not stated)
category: N
--
compound: CC1=C(C(=O)Nc2ccccc2)SCCO1
category: Y
--
compound: CCCCOC(=O)c1ccccc1C(=O)OCCCC
category: N
--
compound: O=C(O)COc1nc(Cl)c(Cl)cc1Cl
category: N
--
compound: CS/C(C)=N/OC(=O)N(C)SN(C)C(=O)O/N=C(\C)SC
category: N
--
compound: CC(C)(C)c1ccc(CSc2cnn(C(C)(C)C)c(=O)c2Cl)cc1
category: Y
--
compound: Cc1cc(Cl)ccc1OCC(=O)O
category: N
--
compound: CCOC(=O)C(Cl)Cc1cc(-n2nc(C)n(C(F)F)c2=O)c(F)cc1Cl (configuration not stated)
category: N
--
compound: CCCCNC(=O)n1c(NC(=O)OC)nc2ccccc21
category: N
--
compound: C=CC1(C)OC(=O)N(c2cc(Cl)cc(Cl)c2)C1=O (configuration not stated)
category: N
--
compound: Fc1ccc(Oc2ccnc3cc(Cl)cc(Cl)c23)cc1
category: Y
--
compound: CCCCNC(=O)OCC#CI
category: Y
--
compound: CCc1nn(C)c(C(=O)NCc2ccc(C(C)(C)C)cc2)c1Cl
category: Y
--
compound: CON(C)C(=O)Nc1ccc(Cl)c(Cl)c1
category: Y
--
compound: COc1nc(NC(C)C)nc(NC(C)C)n1
category: N
--
compound: O=C(O)c1nc(Cl)ccc1Cl
category: N
--
compound: Oc1ccccc1-c1ccccc1
category: N
--
compound: N#Cc1nn(-c2c(Cl)cc(C(F)(F)F)cc2Cl)c(N)c1S(=O)C(F)(F)F (configuration not stated)
category: Y

* * *

- Read-out: TIMP metallopeptidase inhibitor 2 (TIMP2), TIMP2 (gene 7077)
- assay_comment: BSK_KF3CT_TIMP2: BioMAP Diversity Plus: KF3CT Assay for TIMP metallopeptidase inhibitor 2 (TIMP2) Biomarker Activity (AID 2283071)
- condition_label: primary human keratinocytes with fibroblasts; actives raise or lower the signal
The source made the active and inactive calls. The calls were made as follows: active = hit-call score of the fitted dose curve at least 0.9, where 1 is the maximum; inactive = score below 0.9.
Outcome codes: active, inactive

compound: OC(c1ccc(Cl)cc1)(c1cncnc1)c1ccccc1Cl (stereo unspecified)
category: inactive

compound: C=CC1(C)OC(=O)N(c2cc(Cl)cc(Cl)c2)C1=O (stereo unspecified)
category: inactive

compound: Cc1c(F)c(F)c(COC(=O)C2C(/C=C(\Cl)C(F)(F)F)C2(C)C)c(F)c1F (stereo unspecified)
category: inactive

compound: CC(C)Oc1cc(-n2nc(C(C)(C)C)oc2=O)c(Cl)cc1Cl
category: inactive

compound: CC1=C(C(=O)Nc2ccccc2)SCCO1
category: inactive

compound: N#Cc1nn(-c2c(Cl)cc(C(F)(F)F)cc2Cl)c(N)c1S(=O)C(F)(F)F (stereo unspecified)
category: inactive

compound: CCON=C(CC)C1=C(O)CC(c2c(C)cc(C)cc2C)CC1=O (stereo unspecified)
category: inactive

compound: O=C(Nc1ccccc1)Nc1ccnc(Cl)c1
category: inactive

compound: Oc1ccccc1-c1ccccc1
category: inactive

compound: CCNc1nc(Cl)nc(NCC)n1
category: inactive

compound: CN(C)C(=S)SSC(=S)N(C)C
category: active

compound: COc1nc(NC(C)C)nc(NC(C)C)n1
category: inactive

compound: CS/C(C)=N/OC(=O)N(C)SN(C)C(=O)O/N=C(\C)SC
category: active

compound: COc1nc(C)nc(NC(=O)NS(=O)(=O)c2ccccc2CCC(F)(F)F)n1
category: inactive

compound: COc1ccc(C(c2ccc(OC)cc2)C(Cl)(Cl)Cl)cc1
category: inactive

compound: O=C(O)c1nc(Cl)ccc1Cl
category: inactive

compound: CCCCC(CC)COC(=O)c1ccccc1C(=O)OCC(CC)CCCC (stereo unspecified)
category: inactive

compound: COC(=O)C=C(C)OP(=O)(OC)OC
category: inactive

compound: CCCCNC(=O)n1c(NC(=O)OC)nc2ccccc21
category: inactive

compound: CO/C=C(/C(=O)OC)c1ccccc1Oc1cc(Oc2ccccc2C#N)ncn1
category: inactive

compound: CC(C)(C)c1ccc(CSc2cnn(C(C)(C)C)c(=O)c2Cl)cc1
category: active

compound: CCNc1nc(Cl)nc(NC(C)C)n1
category: inactive

compound: COP(N)(=O)SC (stereo unspecified)
category: inactive

compound: CON(C)C(=O)Nc1ccc(Cl)c(Cl)c1
category: inactive

compound: CCOC(=O)C(Cl)Cc1cc(-n2nc(C)n(C(F)F)c2=O)c(F)cc1Cl (stereo unspecified)
category: inactive

compound: CC(C)C1(C)N=C(c2nc3ccccc3cc2C(=O)O)NC1=O (stereo unspecified)
category: inactive

* * *

- assay_comment: IUF_NPC4_neurite_area_120hr: Leibniz Research Institute for Environmental Medicine (IUF) 120-hour Neuronal Morphology Assay for Neurite Area (NPC4) (AID 2284305)
Records with an inconclusive call do not appear. Calls of active or inactive are those of the source. How the source made its calls: active means hit-call score of the fitted dose curve at least 0.9, where 1 is the maximum; inconclusive means response in the unintended direction; inactive means score below 0.9.
Outcome codes: Yes (active), No (inactive)

compound: CC(C)(C)c1ccc(CSc2cnn(C(C)(C)C)c(=O)c2Cl)cc1
category: No
//
compound: COC(=O)N(OC)c1ccccc1COc1ccn(-c2ccc(Cl)cc2)n1
category: Yes
//
compound: CO/C=C(/C(=O)OC)c1ccccc1Oc1cc(Oc2ccccc2C#N)ncn1
category: No
//
compound: CCOC(=O)CC(SP(=S)(OC)OC)C(=O)OCC (centres undefined)
category: No

* * *

- assay_comment: STM_H9_OrnCyssISnorm_ratio: Stemina devTOX quickPredict H9 human embryonic stem cell (hESC)-based Assay for Ornithine (ORN):Cystine (CYSS) Ratio (AID 2283714)
Records with an inconclusive call do not appear. Activity calls are given as the source filed them. The calls were made as follows: active = hit-call score of the fitted dose curve at least 0.9, where 1 is the maximum; inconclusive = response in the unintended direction; inactive = score below 0.9.
Outcome codes: active, inactive

compound: CN(C)C(=S)SSC(=S)N(C)C
category: active
--
compound: COc1nc(NC(C)C)nc(NC(C)C)n1
category: active
--
compound: CCOC(=O)CC(SP(=S)(OC)OC)C(=O)OCC (stereo not drawn)
category: active
--
compound: OC(c1ccc(Cl)cc1)(c1cncnc1)c1ccccc1Cl (stereo not drawn)
category: active
--
compound: CCNc1nc(Cl)nc(NCC)n1
category: inactive
--
compound: CCc1nn(C)c(C(=O)NCc2ccc(C(C)(C)C)cc2)c1Cl
category: active
--
compound: COC(=O)N(OC)c1ccccc1COc1ccn(-c2ccc(Cl)cc2)n1
category: active
--
compound: CCON=C(CC)C1=C(O)CC(c2c(C)cc(C)cc2C)CC1=O (stereo not drawn)
category: inactive
--
compound: COC(=O)c1ccccc1C(=O)OC
category: inactive
--
compound: C=CC1(C)OC(=O)N(c2cc(Cl)cc(Cl)c2)C1=O (stereo not drawn)
category: inactive
--
compound: C#CCOS(=O)OC1CCCCC1Oc1ccc(C(C)(C)C)cc1 (stereo not drawn)
category: active
--
compound: CCNc1nc(Cl)nc(NC(C)C)n1
category: active
--
compound: CC(C)(C)c1ccc(CSc2cnn(C(C)(C)C)c(=O)c2Cl)cc1
category: active
